Provenance of the data: the kinase profiling compilation of Christmann-Franck et al. (2016)

Quick reference: kinase still bound, per cent of control of the listed items.
# system.under.test: CLK4 (human)
# method.notes: KINOMEscan competition binding
# stated.conditions: compound 10.0 µM
metric: kinase still bound, per cent of control

molecule: CN(C)C/C=C/C(=O)Nc1cccc(Nc2ncc3c(n2)N(C)c2ccccc2C(=O)N3C)c1
value.reported: 100%

molecule: COc1cc(C(=O)NC2CCN(C)CC2)ccc1Nc1ncc2c(n1)N(C1CCCC1)C(C)CC(=O)N2C (stereo not given)
value.reported: 100%

molecule: OCCCNc1cc(-c2ccnc(Nc3cccc(Cl)c3)n2)ccn1
value.reported: 14%

molecule: C=CC(=O)Nc1cccc(Oc2nc(Nc3ccc(N4CCN(C)CC4)cc3OC)ncc2Cl)c1
value.reported: 12%

molecule: COc1cc(C(=O)NC2CCN(C)CC2)ccc1Nc1ncc2c(n1)N(C1CCCC1)CCC(=O)N2C(C)C
value.reported: 100%
